Collected logP values appear next to each entry.
Test: Partition coefficient (logP)
Assay type: physicochemical
Conditions: octanol/water

{"columns": ["molecule", "logP"],
 "data": [
  ["CCCCCCCOC(=O)c1ccc(OS(N)(=O)=O)cc1", 3.89],
  ["NS(=O)(=O)Oc1ccc(C(=O)OC2CCCCCCC2)cc1", 3.87],
  ["CCCCOC(=O)c1ccc(OS(N)(=O)=O)cc1", 2.7],
  ["CCCCCOC(=O)c1ccc(OS(N)(=O)=O)cc1", 3.1],
  ["NS(=O)(=O)Oc1ccc(C(=O)OC2CCCCCC2)cc1", 3.47],
  ["NS(=O)(=O)Oc1ccc(C(=O)OC2CCCC2)cc1", 2.68],
  ["NS(=O)(=O)Oc1ccc(C(=O)OC2CCCCC2)cc1", 3.08],
  ["Cc1cc(=O)oc2cc(OS(N)(=O)=O)ccc12", 1.6],
  ["CCCCCCOC(=O)c1ccc(OS(N)(=O)=O)cc1", 3.49],
  ["CCCOC(=O)c1ccc(OS(N)(=O)=O)cc1", 2.3],
  ["NS(=O)(=O)Oc1ccc2c3c(c(=O)oc2c1)CCCCC3 [IROSUSTAT]", 2.65],
  ["CCCCCCCCOC(=O)c1ccc(OS(N)(=O)=O)cc1", 4.29]
]}

----------
Collected pKa values appear next to each entry.
Experiment: pKa value was determined
Format: physicochemical
endpoint: pKa

{"columns": ["compoundStructure", "number"],
 "data": [
  ["CCCCCCCCOC(=O)c1ccc(OS(N)(=O)=O)cc1", 8.09],
  ["CCCCCCCCCCOC(=O)c1ccc(OS(N)(=O)=O)cc1", 8.09],
  ["NS(=O)(=O)Oc1ccc(C(=O)OC2CCCCCC2)cc1", 8.88],
  ["NS(=O)(=O)Oc1ccc2c3c(c(=O)oc2c1)CCCCC3", 8.27],
  ["CCCCCCCCCOC(=O)c1ccc(OS(N)(=O)=O)cc1", 8.39]
]}

----------
Assay: Partition coefficient (logP)
Assay type: physicochemical
Details: octanol/water

{"columns": ["compound", "logP"],
 "data": [
  ["COC(=O)c1ccc(OS(N)(=O)=O)cc1", 1.49],
  ["CCCCCCCCCOC(=O)c1ccc(OS(N)(=O)=O)cc1", 4.68],
  ["C[C@]12CC[C@@H]3c4ccc(OS(N)(=O)=O)cc4CCC3[C@@H]1CCC2=O (single isomer, unassigned) [EMATE]", 3.8],
  ["CCOC(=O)c1ccc(OS(N)(=O)=O)cc1", 1.84],
  ["CCCCCCCCCCOC(=O)c1ccc(OS(N)(=O)=O)cc1", 5.08]
]}

----------
Collected inhibition values appear next to each entry.
Biological target: Steryl-sulfatase (Homo sapiens) (UniProt P08842)
Sequence (P08842 whole entry): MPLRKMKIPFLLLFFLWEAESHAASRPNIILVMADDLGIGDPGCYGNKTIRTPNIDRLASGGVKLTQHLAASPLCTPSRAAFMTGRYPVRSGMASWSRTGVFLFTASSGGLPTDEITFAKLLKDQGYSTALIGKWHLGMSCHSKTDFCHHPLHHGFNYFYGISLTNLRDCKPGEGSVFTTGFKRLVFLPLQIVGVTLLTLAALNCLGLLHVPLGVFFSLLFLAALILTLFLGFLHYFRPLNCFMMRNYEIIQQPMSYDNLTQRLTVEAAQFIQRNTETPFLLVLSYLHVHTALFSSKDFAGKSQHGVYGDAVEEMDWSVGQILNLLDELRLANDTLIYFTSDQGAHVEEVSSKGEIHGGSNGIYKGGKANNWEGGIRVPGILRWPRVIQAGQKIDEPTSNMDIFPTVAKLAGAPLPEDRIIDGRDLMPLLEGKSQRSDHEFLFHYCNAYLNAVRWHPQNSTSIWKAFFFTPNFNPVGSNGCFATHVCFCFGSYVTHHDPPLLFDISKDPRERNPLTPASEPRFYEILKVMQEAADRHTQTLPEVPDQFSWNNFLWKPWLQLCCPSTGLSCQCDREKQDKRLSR
Assay: Inhibitory activity against estrone sulfatase at 20 uM (initial screening)
endpoint: inhibition (%)

{"columns": ["compoundStructure", "unitAbbreviation", "number"],
 "data": [
  ["NS(=O)(=O)Oc1ccc(C(=O)OC2CCCC2)cc1", "%", 62],
  ["NS(=O)(=O)Oc1ccc(C(=O)OC2CCCCC2)cc1", "%", 84],
  ["NS(=O)(=O)Oc1ccc(C(=O)OC2CCCCCCC2)cc1", "%", 82],
  ["NS(=O)(=O)Oc1ccc(C(=O)OC2CCCCCC2)cc1", "%", 87]
]}
